Test system: Cucumis sativus
experiment notes: Growth regulatory activity in cucumber assessed as root growth at 10 mg/L incubated in dark for 5 days
Type: functional
observation type: Activity (%)
A number alone suffices; assume %.

Request: Notebook entry, Cucumis sativus assay: Activity of CCOCCOC(=O)c1c(SC)nn(-c2ccc(C)cc2C)c1N = ?
Result: 42.2

Request: Field entry: CCOCCOC(=O)c1c(C(C)C)nn(-c2ccc([N+](=O)[O-])cc2)c1N
Result: 21.9

Request: Cool, now CCOCCOC(=O)/C(C#N)=C(\NNc1ccc(Cl)cc1Cl)C(C)C
Result: -27.8

Request: // next record CCOCCOC(=O)/C(C#N)=C(\NNc1cccc(Cl)c1Cl)C(C)C
Result: 72.9

Request: Another molecule: CCOCCOC(=O)c1c(C(C)C)nn(-c2ccc(C)cc2)c1N
Result: 21.9

Request: Try CCOCCOC(=O)/C(C#N)=C(/CC)NNc1c(Cl)cc(Cl)cc1Cl next.
Result: -16.5

Request: What about this molecule? CCOCCOC(=O)c1c(CC)nn(-c2ccc(Cl)cc2)c1N
Result: 111.3

Request: Then CCOCCOC(=O)c1c(SC)nn(-c2ccc(Cl)cc2Cl)c1N ?
Result: 17.8

Request: Then what about the molecule CCOCCOC(=O)c1c(CC)nn(-c2ccccc2)c1N ?
Result: 46.3

Request: And for CCOCCOC(=O)/C(C#N)=C(\NNc1c(Cl)cc(Cl)cc1Cl)C(C)C ?
Result: -2.2

Request: # iterate: CCOCCOC(=O)/C(C#N)=C(/CC)NNc1cc(Cl)c(Cl)cc1Cl
Result: -39

Request: Same again, this time with CCOCCOC(=O)c1c(SC)nn(-c2ccccc2)c1N
Result: 50.4

Request: // same read-out, input: CCOCCOC(=O)/C(C#N)=C(/CC)NNc1cccc(Cl)c1Cl
Result: -12.7

Request: Similarly, CCOCCOC(=O)/C(C#N)=C(\NNc1c(Cl)cccc1Cl)C(C)C ?
Result: -6

Request: Lookup CCOCCOC(=O)c1c(SC)nn(-c2ccc([N+](=O)[O-])cc2)c1N
Result: 54.4

Request: Cool, now CCOCCOC(=O)c1c(CC)nn(-c2ccc([N+](=O)[O-])cc2)c1N
Result: 5.6

Request: Also need CCOCCOC(=O)/C(C#N)=C(/CC)NNc1c(Cl)cccc1Cl , thanks.
Result: -6

Request: Also, CCOCCOC(=O)c1c(C(C)C)nn(-c2ccc(Cl)cc2Cl)c1N please.
Result: -2.4

Request: Query CCOCCOC(=O)c1c(C(C)C)nn(-c2ccc(Cl)cc2)c1N next
Result: 38.2

Request: Quick one: CCOCCOC(=O)c1c(SC)nn(-c2ccc(Cl)cc2)c1N
Result: 66.6

Request: What about CCOCCOC(=O)/C(C#N)=C(\NNc1cc(Cl)c(Cl)cc1Cl)C(C)C ?
Result: -1.5

Request: Please give the result for CCOCCOC(=O)/C(C#N)=C(/CC)NNc1ccc(Cl)cc1Cl too.
Result: -5.2

Request: Please answer likewise for CCOCCOC(=O)c1c(SC)nn(-c2ccc(C)cc2)c1N
Result: 66.6

Request: Moving on to CCOCCOC(=O)c1c(C(C)C)nn(-c2ccccc2)c1N
Result: 46.3

---

Provide the reported inhibition at 50 µg/mL of each item.
System: Cladosporium cucumerinum
experiment notes: Fungicidal activity against Cladosporium cucumerinum assessed as inhibition of mycelium growth at 50 mg/L after 72 hrs
Format: functional
Respond with the bare value in %.

Request: Recorded inhibition at 50 µg/mL for CCOCCOC(=O)/C(C#N)=C(\NNc1cc(Cl)c(Cl)cc1Cl)C(C)C , please?
Result: 16.7

Request: Do the same for CCOCCOC(=O)c1c(C(C)C)nn(-c2ccc(C)cc2)c1N please
Result: 40

Request: What about CCOCCOC(=O)/C(C#N)=C(\NNc1cccc(Cl)c1Cl)C(C)C ?
Result: 25

Request: Query CCOCCOC(=O)c1c(C(C)C)nn(-c2ccc([N+](=O)[O-])cc2)c1N next
Result: 40

Request: Same lookup for CCOCCOC(=O)/C(C#N)=C(/CC)NNc1cc(Cl)c(Cl)cc1Cl , please.
Result: 13.9

Request: Would you kindly repeat that for CC1COC(Cn2cncn2)(c2ccc(Oc3ccc(Cl)cc3)cc2Cl)O1 (stereo not given) [DIFENOCONAZOLE] ?
Result: 100

Request: Here is the next compound: CCOCCOC(=O)c1c(CC)nn(-c2ccc([N+](=O)[O-])cc2)c1N
Result: 36.4

Request: Further, for CCOCCOC(=O)c1c(SC)nn(-c2ccc(Cl)cc2)c1N ?
Result: 23.6

Request: Continue with CCOCCOC(=O)c1c(SC)nn(-c2ccc([N+](=O)[O-])cc2)c1N
Result: 12.7

Request: Next record, please: CCOCCOC(=O)c1c(C(C)C)nn(-c2ccccc2)c1N
Result: 1.8

---

So I've got a bunch of molecules here, and I need their inhibition at 50 µg/mL values.
Tested on: Mycosphaerella arachidis
experiment notes: Fungicidal activity against Cercospora arachidicola assessed as inhibition of mycelium growth at 50 mg/L after 72 hrs
Type: functional
Please respond with the number in % and leave the unit unwritten.

Request: Return reported inhibition at 50 µg/mL; argument: CCOCCOC(=O)/C(C#N)=C(/CC)NNc1c(Cl)cc(Cl)cc1Cl
Result: 15.5

Request: Similarly, CCOCCOC(=O)c1c(C(C)C)nn(-c2ccc(C)cc2)c1N ?
Result: 20.6

Request: Same thing, different molecule: CCOCCOC(=O)/C(C#N)=C(/CC)NNc1cc(Cl)c(Cl)cc1Cl
Result: 21.3

Request: And the next one, CCOCCOC(=O)c1c(CC)nn(-c2ccccc2)c1N ?
Result: 35.3

Request: Next: CCOCCOC(=O)c1c(SC)nn(-c2ccc(Cl)cc2)c1N
Result: 26.5

Request: Also check CCOCCOC(=O)/C(C#N)=C(/CC)NNc1ccc(Cl)cc1Cl
Result: 51.5

Request: CC1COC(Cn2cncn2)(c2ccc(Oc3ccc(Cl)cc3)cc2Cl)O1 (stereo unspecified) , same question.
Result: 100

Request: Check CCOCCOC(=O)c1c(SC)nn(-c2ccccc2)c1N too.
Result: 41.2

Request: What do we get for CCOCCOC(=O)c1c(CC)nn(-c2ccc(Cl)cc2)c1N ?
Result: 41.2

Request: Note, next up: CCOCCOC(=O)c1c(CC)nn(-c2ccc([N+](=O)[O-])cc2)c1N
Result: 39.2

Request: Param item: CCOCCOC(=O)/C(C#N)=C(\NNc1c(Cl)cccc1Cl)C(C)C
Result: 0

---

Tested on: Bel-7402
experiment notes: Antitumor activity against human Bel7402 cells at 100 uM/L after 72 hrs by MTT assay
Format: functional
condition details: Bel-7402, 72 h
The threshold is inclusive: inhibition at 100 µM of exactly 6% counts as criterion met; values below receive criterion not met.

Request: Hello, I need to know if CCOCCOC(=O)c1c(C(C)C)nn(-c2ccc(Cl)cc2Cl)c1N has measured inhibition at 100 µM not below 6%. Thanks!
Result: criterion not met

Request: What do you get for CCOCCOC(=O)c1c(SC)nn(-c2ccc(Cl)cc2Cl)c1N ?
Result: criterion not met

Request: What do you get for CCOCCOC(=O)/C(C#N)=C(/CC)NNc1c(Cl)cc(Cl)cc1Cl ?
Result: criterion not met

Request: And then CCOCCOC(=O)c1c(CC)nn(-c2ccc([N+](=O)[O-])cc2)c1N , what is it?
Result: criterion not met

Request: // same read-out, input: CCOCCOC(=O)/C(C#N)=C(\NNc1cccc(Cl)c1Cl)C(C)C
Result: criterion met

Request: Moving on to the next compound: CCOCCOC(=O)/C(C#N)=C(\NNc1c(Cl)cccc1Cl)C(C)C
Result: criterion met

Request: Query CCOCCOC(=O)c1c(SC)nn(-c2ccccc2)c1N next
Result: criterion not met

Request: Try the compound CCOCCOC(=O)/C(C#N)=C(/CC)NNc1cc(Cl)c(Cl)cc1Cl
Result: criterion not met

Request: Also, CCOCCOC(=O)/C(C#N)=C(/CC)NNc1c(Cl)cccc1Cl please.
Result: criterion met

Request: Then what about the compound CCOCCOC(=O)/C(C#N)=C(\NNc1c(Cl)cc(Cl)cc1Cl)C(C)C ?
Result: criterion met

Request: And then CCOCCOC(=O)c1c(SC)nn(-c2ccc(C)cc2C)c1N , what is it?
Result: criterion not met

Request: Param item: CCOCCOC(=O)/C(C#N)=C(\NNc1ccc(Cl)cc1Cl)C(C)C
Result: criterion met

Request: Then CCOCCOC(=O)/C(C#N)=C(\NNc1cc(Cl)c(Cl)cc1Cl)C(C)C ?
Result: criterion not met

Request: How about this compound: CCOCCOC(=O)/C(C#N)=C(/CC)NNc1cccc(Cl)c1Cl
Result: criterion met

Request: Another compound to check: CCOCCOC(=O)/C(C#N)=C(/CC)NNc1ccc(Cl)cc1Cl
Result: criterion not met

Request: Now the compound CCOCCOC(=O)c1c(SC)nn(-c2ccc([N+](=O)[O-])cc2)c1N
Result: criterion not met

Request: Also, CCOCCOC(=O)c1c(C(C)C)nn(-c2ccc([N+](=O)[O-])cc2)c1N please.
Result: criterion met
